system: CCI of the sciatic nerve (mechano-allodynia); assay: CCI model of neuropathic pain, mechano-allodynia (von Frey PWT); type: in vivo, mice; settings: D7; MRS1523 5, DPCPX 2, SCH-442416 0.2, naloxone 25 μmol/kg
MEASURED ATTRIBUTE: effect of antagonist given alone on ipsilateral or contralateral PWT

1. CCCOC(=O)c1c(-c2ccccc2)nc(CC)c(C(=O)SCC)c1CCC ... lacked effect
2. COc1ccc(CCCn2ncc3c2nc(N)n2nc(-c4ccco4)nc32)cc1 ... lacked effect
3. CCCn1c(=O)c2[nH]c(C3CCCC3)nc2n(CCC)c1=O ... lacked effect

The measurements presented in this section are drawn from patent US9132131B2.
